Where do the numbers come from? From PubChem BioAssay (EPA / NIEHS).

Read-out: Cytochrome P450 (CYP2B6), CYP2B6 (gene 1555)
Assay: LTEA_HepaRG_CYP2B6: Life Technologies and Expression Analysis (LTEA) Assay for Cytochrome P450 (CYP2B6) using HepaRG (AID 2283481)
Settings: mRNA level, 48 h; actives raise or lower the signal
Activity calls are given as the source filed them. The calls were made as follows: active = hit-call score of the fitted dose curve at least 0.9, where 1 is the maximum; inactive = score below 0.9.
Hello, when you answer, please use one of the following outcomes: active, inactive

Query: recorded result category for `C=CN1CCCC1=O` in this test
Reply: inactive

Query: Let us now turn to `O=S1(=O)CCCO1`
Reply: inactive

Query: Let us now turn to `CCc1ccc(O)c(C(C)(C)C)c1`
Reply: inactive

Query: Let us now turn to `CCCCCCCCCCCCCCO`
Reply: inactive

Query: Let us now turn to `Cn1c(=O)c2[nH]cnc2n(C)c1=O`
Reply: inactive

Query: Let us now turn to `OCCNCCO`
Reply: active

Query: Let us now turn to `c1ccc2c(c1)-c1cccc3c1c-2cc1ccccc13`
Reply: inactive

Query: Let us now turn to `OCc1ccccc1`
Reply: inactive

Query: Let us now turn to `Nc1ccn([C@@H]2O[C@H](CO)[C@@H](O)[C@@H]2O)c(=O)n1`
Reply: inactive

Query: Let us now turn to `OC(CCl)CCl`
Reply: inactive

Query: Let us now turn to `CCCCCCCCCCCCCCCCOS(=O)(=O)O`
Reply: inactive

Query: Let us now turn to `c1ccc2ncccc2c1`
Reply: active

Query: Let us now turn to `CCc1cccc(CC)c1N`
Reply: active

Query: Let us now turn to `O=C(O)c1ccc2c(c1)nc(C(=O)NC1CCN(C3CC3)CC1)n2Cc1cc(-c2ccc(Cl)s2)on1`
Reply: inactive

Query: Let us now turn to `OCCOCCOCCO`
Reply: inactive

Query: Let us now turn to `CCCCCCCCCC`
Reply: inactive

Query: Let us now turn to `O=C(NO)C1(NS(=O)(=O)c2ccc(Oc3ccc(F)cc3)cc2)CCOCC1`
Reply: active

Query: Let us now turn to `CC(=O)c1ccccc1`
Reply: inactive

Query: Let us now turn to CC(C)CCCCCCOC(=O)C1CCCCC1C(=O)OCCCCCCC(C)C (centres undefined)
Reply: inactive

Query: Let us now turn to `NC(=O)NN=Cc1ccc([N+](=O)[O-])o1`
Reply: inactive

Query: Let us now turn to `CC(C)c1nnc2ccc(-c3ocnc3-c3cc(F)ccc3F)cn12`
Reply: active

Query: Let us now turn to `CCN(CC)C(=S)SSC(=S)N(CC)CC`
Reply: active

Query: Let us now turn to `CC(C)C(=O)Nc1ccc([N+](=O)[O-])c(C(F)(F)F)c1`
Reply: active

Query: Let us now turn to `Cc1nc(-c2ccccn2)ncc1C(=O)Nn1cc(C)c2cc(F)ccc21`
Reply: active

Query: Let us now turn to `CCOc1ccc2[nH]cc(C(=O)NCc3ccccc3)c(=O)c2n1`
Reply: inactive

Query: Let us now turn to `COS(C)(=O)=O`
Reply: inactive

Query: Let us now turn to `Cc1nccn1-c1ccc(Sc2cccc(C3(C(N)=O)CCOCC3)c2)cc1`
Reply: active

Query: Let us now turn to `NC(=O)N1c2ccccc2C=Cc2ccccc21`
Reply: active

Query: Let us now turn to `CC1(C)C(=O)N(Cl)C(=O)N1Cl`
Reply: inactive
